- Test system: LU-99A (Non-Small Cell Lung Carcinoma);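 further: after 72 h of two-drug dosing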
- measurement-notes: Bliss excess, mean over the matrix (fraction); higher = more synergy
Record form. Attribute: Bliss excess. Fill in for each entry.
Give bare numbers.

Would you please look over these solved cases?
COc1cc2c(cc1OCCCCCOc1cc3c(cc1OC)C(=O)N1C=C(C)C[C@H]1C=N3)N=C[C@@H]1CC(C)=CN1C2=O [SG3199] + O=C(c1cc(Cc2n[nH]c(=O)c3ccccc23)ccc1F)N1CCN(C(=O)C2CC2)CC1 [Olaparib] (first compound max 0.001 µM, 7x7, partner max 10 µM) ... -0.0672
Cn1cnc2c(F)c(Nc3ccc(Br)cc3Cl)c(C(=O)NOCCO)cc21 [Selumetinib] + CC(C)n1c(=O)n(C)c2cnc3cc(F)c(-c4ccc(OCCCN5CCCCC5)nc4)cc3c21 [AZD1390] (first compound max 10 µM, 7x7, partner max 0.3 µM) ... -0.0058
CS(=O)(=O)CCNCc1ccc(-c2ccc3ncnc(Nc4ccc(OCc5cccc(F)c5)c(Cl)c4)c3c2)o1 [Lapatinib] + C[C@@H](Oc1cc(-c2cnn(C3CCNCC3)c2)cnc1N)c1c(Cl)ccc(F)c1Cl [Crizotinib] (first compound max 10 µM, 7x7, partner max 10 µM) ... -0.0205

Lab note: need Bliss excess with LU-99A (Non-Small Cell Lung Carcinoma) for entry CN(C)CCCOc1ccc(-c2ccc3ncc4c(c3c2)n(C2CCOCC2)c(=O)n4C)cn1 [AZD0156] + O=C(c1cc(Cc2n[nH]c(=O)c3ccccc23)ccc1F)N1CCN(C(=O)C2CC2)CC1 [Olaparib] (first compound max 3 µM, partner max 3 µM) , please look it up.
-0.0145

###

Record form. Attribute: combination Emax. Fill in for each entry.
- Tested on: COR-L95 (Small Cell Lung Carcinoma)
- measurement-notes: combination Emax (second highest fraction inhibited in the dose matrix, 72 h); higher = more inhibition; extreme values may be limits of the assay
Give bare numbers.

Would you please look over these solved cases?
Cc1nc(Nc2ncc(C(=O)Nc3c(C)cccc3Cl)s2)cc(N2CCN(CCO)CC2)n1 [Dasatinib] + CC(=O)Nc1cccc(-n2c(=O)n(C3CC3)c(=O)c3c(Nc4ccc(I)cc4F)n(C)c(=O)c(C)c32)c1 [Trametinib] (first compound max 2 µM, 7x7, partner max 1 µM) ... 0.128
Cc1c2c(nn1C)CSCc1cc(n(C)n1)CSc1cc(c3ccccc3c1)OCCCc1c(C(=O)O)n(C)c3c-2c(Cl)ccc13 [AZD5991] + Cc1cc2ncnn2cc1Nc1ncc2c(n1)n(C1CCOCC1)c(=O)n2C [AZD7648] (first compound max 1 µM, 7x7, partner max 10 µM) ... 0.315
Cc1c2c(nn1C)CSCc1cc(n(C)n1)CSc1cc(c3ccccc3c1)OCCCc1c(C(=O)O)n(C)c3c-2c(Cl)ccc13 [AZD5991] + CC(=O)O[C@H]1C(=O)[C@@]2(C)[C@H]([C@H](OC(=O)c3ccccc3)[C@]3(O)C[C@H](OC(=O)[C@H](O)[C@@H](NC(=O)c4ccccc4)c4ccccc4)C(C)=C1C3(C)C)[C@]1(OC(C)=O)CO[C@@H]1C[C@@H]2O [Paclitaxel] (first compound max 1 µM, 7x7, partner max 3 µM) ... 0.399
CN(CCO)CC[C@H](CSc1ccccc1)Nc1ccc(S(=O)(=O)NC(=O)c2ccc(N3CCC([C@@H](O)c4ccccc4-c4ccc(Cl)cc4)CC3)cc2)cc1S(=O)(=O)C(F)(F)F [AZD4320] + Nc1ccn([C@@H]2O[C@H](CO)[C@@H](O)C2(F)F)c(=O)n1 [Gemcitabine] (first compound max 1 µM, 7x7, partner max 0.3 µM) ... 1
COc1nnc2ccc(N3CCC(c4ccc(OCCN5CCN(C)C(=O)[C@H]5C)cc4)CC3)nn12 [AZD5153] + Cn1cnc2c(F)c(Nc3ccc(Br)cc3Cl)c(C(=O)NOCCO)cc21 [Selumetinib] (first compound max 1 µM, 7x7, partner max 10 µM) ... 0.218

Which combination Emax is listed for CCN(CCO)CCCOc1ccc2c(Nc3cc(CC(=O)Nc4cccc(F)c4)[nH]n3)ncnc2c1 [AZD2811] + C[C@@H]1COCCN1C2=NC(=NC(=C2)C3(CC3)[S@](=N)(=O)C)C4=C5C=CNC5=NC=C4 [AZD6738] (first compound max 1 µM, 7x7, partner max 10 µM) ?
0.533
